- Tested on: K4 kissing-loop RNA reporter;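 further: bound reporter read as fluorescence of individual clusters on recovered sequencing chips by microscopy, with normalized cluster intensities fitted with a binding model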
- TEST: apparent KD of K4 kissing-loop reporter; higher = weaker reporter binding
- MEASUREMENT_PARAMETERS: Eterna round: R107; input ligand: theophylline 20 uM
Answer each item with its documented apparent KD of K4 kissing-loop reporter.
Express it in nM; write the number only.

Query: Return apparent KD of K4 kissing-loop reporter (reported value) for this sequence: "GCCAGAGCGCGAAGGAGCGCCCUGACAGGUUGCUGCCGUGGGCAGUGAUGUUGCUCAGUCCGGCAGGUAGGUCGCGUGCUCUGGC"
Result: 196

Query: Identify measured apparent KD of K4 kissing-loop reporter corresponding to CCAUCGCUGUUCGAUACCAGUCAUUUUUUAUUUUAUUUUUUUUUUGGAGUGAUGUUCCAAGACCCUUGGCAGCGGAUAGUGAUGG [whbob_SS_Theo_B_th80]
Result: 145

Query: Consider the sequence GCAUGGGUGCUUGCACAAGUGAUGUUUGGGCGAGGACCGGUACGGCCGCCACUCGUACGUUUAGUUAAAAGACAUCAUGCGAGUC [theeternabot_exclusion_KL_Trp_A_11] and give its recorded apparent KD of K4 kissing-loop reporter.
Result: 339

Query: Fill in apparent KD of K4 kissing-loop reporter for record AGUAUGUAAUAUGGCAUAUUUAGAACUGAAGGAGCGCCGAAUAAGGCAGGUAGGUCGCGGUUUUAUGAGUGAUGUUCUUGUUUAA [KL-SSArg-A24]
Result: 329

Query: Tell me measured apparent KD of K4 kissing-loop reporter for GGAGGUUGGUGCGAUACCAGACCAGCAGUGAUGUUGCGCCAAAGUGAGUGAUGUUCACCGGUCCCUUGGCAGCGCAUUCCUUUAG [Same State Theophylline B GF 14] please.
Result: 1120

Query: Provide one value: measured apparent KD of K4 kissing-loop reporter of CGUUUCUCUGUCGAUACCAGCUUCAGUUGGCGGCCAGUGAUGUUGGUAUCGCCGAUGCCAAGCCCUUGGCAGCGACAUGAGACCC [Gezausin]
Result: 128

Query: For the sequence UGUCAUGGAAACAUGAACGUUAAAAUAAAUCGAGGACCGGUACGGCCGCCACUCGUAUAGCGGUCAGUGAUGUUGACUGUAGUAA [KL-SSTryp-A form2 sub8] , give its measured apparent KD of K4 kissing-loop reporter value.
Result: 116

Query: Look up and report measured apparent KD of K4 kissing-loop reporter for this entry: UAUUAAUUGUCAGGAUAUCGUAUUCGAGUGAUGUUCGUAUAUCGACGAUAGUCGAUUCUAUCUAUACGAGAAGGGACAUUAUUUA [JR_SSFMNB_Sub007]
Result: 804

Query: Provide apparent KD of K4 kissing-loop reporter value for the following sequence: AGCCACGACGCGGCCGCCACUGCCAUUAAACGUAAGGCAAAUCUAAUCUUCGAGUGAUGUUCGGGCAGGACCGGGCGGAGACUUG [theeternabot_sameState_KL_Trp_B_18]
Result: 772

Query: Supply reported apparent KD of K4 kissing-loop reporter belonging to this sequence: UCCUGCUGUCUGCCACGAAAGUGGAUUGAUACCAGAGUCGAAAGACUCCCUUGGCAGCGAGUGAUGUUCGAAGCAGGUAAAUAAA [MatMod 2 - Jieux - Exclusion - Theophylline A]
Result: 220

Query: Tell me measured apparent KD of K4 kissing-loop reporter for AGAGUUAUAUGAGGAUAUGGGAUAGUAAAUGAGUGAGUUAUAGUGUAGUUUGUUUAGUGAUGUUAUUUAGAAGGCGUGAGUGAUG [dgnnmullin] please.
Result: 113

Query: Given AAGUGAUGUUGUAGUGAUGUUGUGAUGUUGCAGGAUAUAUAGUGAUGUAGAAGGGUAUGUGCAGUGUUCUUAUUUGAGUGUUGAU [zffdmullin] , respond with its apparent KD of K4 kissing-loop reporter.
Result: 63.2
